Provenance of the data: ChEMBL document CHEMBL2311431

Record form. Attribute: MBC. Fill in for each entry.
Test system: Staphylococcus aureus
Assay: Bactericidal activity against Staphylococcus aureus ATCC 6538 after 72 hrs by serial subcultivation method
Type: functional
Conditions: ATCC 6538, 72 h
Numbers only, in µM.

// known answers, use as guide
INSERT INTO assay_data (chemical_string, readout_kind, observed) VALUES
  ('COc1ccc(OC)c(/C=C2\S/C(=N/c3nccs3)NC2=O)c1', 'MBC', 348),
  ('O=C1N/C(=N\c2nc(-c3ccccc3)cs2)S/C1=C\c1cccc(Cl)c1', 'MBC', 50.4);

List MBC for every entry below, keeping the order given.
1. CN(C)c1ccc(/C=C2\S/C(=N/c3nccs3)NC2=O)cc1
2. O=C1N/C(=N\c2nccs2)S/C1=C\c1cccc(Cl)c1Cl

[60.6, 84.2]

Find the recorded MBC belonging to `Cc1cnc(/N=C2\NC(=O)/C(=C/c3ccc([N+](=O)[O-])cc3)S2)s1` and report it.
232
